B1: tRNA (parent)
chain: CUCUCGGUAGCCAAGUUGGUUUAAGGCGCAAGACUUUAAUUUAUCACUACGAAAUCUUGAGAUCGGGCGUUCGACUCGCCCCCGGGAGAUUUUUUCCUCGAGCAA

Variants of: B1
Experiment: nonsense suppression (GFP-seq) (ratio to wild type); higher = more function; SUP4oc tRNA, yeast GFP reporter sort-seq
This sample holds only a part of the variants without activity.
measured_attribute: nonsense suppression
Returns: the value as a bare number; no unit string appended.

mutant_designation: A30C U58G
number: 1.02

// query Supply recorded nonsense suppression for G28C G78A here.
// result 0.0288

// query Supply recorded nonsense suppression for C12U A54G here.
// result 0.0372

// query Supply recorded nonsense suppression for A24U A33G here.
// result 0.117
